Every entry's value here was drawn from the supplement of paper PMC6555819.

# System: RARg homodimer (NR concentration 270 nM)
# TEST NAME: PBM binding z-score (relative to random genomic background probes); higher = stronger binding; sequences stand for … in GC…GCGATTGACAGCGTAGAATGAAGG
METRIC NAME: PBM binding z-score

Example sequences with recorded PBM binding z-score:
The observed PBM binding z-score for `CGTAGTTGGTCAGGAGGTCACACACCGGATATGA` when tested with RARg homodimer (NR concentration 270 nM) stands at 4.39

The observed PBM binding z-score for `TCATATACGTAATACAGGTGAAAGTCGGCATCTA` when tested with RARg homodimer (NR concentration 270 nM) stands at 0.567

The observed PBM binding z-score for `TAGCCTAGGTCATTTAGGGGCCAGTATAGAAAGC` when tested with RARg homodimer (NR concentration 270 nM) stands at 4.36

The observed PBM binding z-score for `GCTGCTAGGTGAGGTTGGTCAGCTAACGGGTACG` when tested with RARg homodimer (NR concentration 270 nM) stands at -0.239

The observed PBM binding z-score for `ACTAGTTGGTCAGCTGAGGTCTCACACAATTCGG` when tested with RARg homodimer (NR concentration 270 nM) stands at 0.774

***
The observed PBM binding z-score for `ATATGTAGGTTATCTGGTCATTCAGTTTGCGCAT` when tested with RARg homodimer (NR concentration 270 nM) stands at 1.15

The observed PBM binding z-score for `ATCGAAAGGTCGAAGCTGAGTATACCCACCCGAA` when tested with RARg homodimer (NR concentration 270 nM) stands at 3.5
